Examples of molecules with documented cell viability follow.
tested on: NOMO1; experiment: cell viability relative to DMSO control; higher = less cytotoxic; conditions: RPMI 5 mM glucose + 10% FBS; 48 h; 1.71 µM
// note: answer is a bare numeric in %

OCCC#Cc1nc(-c2ccc(F)cc2)c(-c2ccncc2)n1CCCc1ccccc1
136
CO/N=C(/C(=O)N[C@@H]1C(=O)N2C(C(=O)O)=C(CSC(=O)c3ccco3)CS[C@H]12)c1csc(N)n1
92.5
CC(O)C1C2C(C)\C(=C(/N2C1=O)C(O)=O)SC3CNC(C3)C(=O)N(C)C (stereo not given)
81.6

cell viability for `O.O.CCN1CCN(C(=O)N[C@H](C(=O)N[C@H]2[C@@H]3SC\C(=C(/N3C2=O)C(O)=O)CSC4=NN=N[N]4C)C5=CC=C(O)C=C5)C(=O)C1=O` ? 109

# repeat for `C[C@](N)(Cc1ccc(O)c(O)c1)C(=O)O` 78.4

# repeat for `C[S+](=O)([O-])c1ccc(Oc2cc(F)cc(C#N)c2)c2c1[C@H](O)C(F)(F)C2` 112

# repeat for `CNC(=O)C1=CC=C(C)C(=C1)N2C(=C/C(=C(/Br)C2=O)OCC3=C(F)C=C(F)C=C3)\C` 137

# repeat for `COc1cc(/C=C/C(=O)O)ccc1O` 95.1

# repeat for CCOC1=CC=CC=C1N\2C(=O)C3=C(C=CC=C3)\N=C2C(C)N4CCN(CC4)C(=O)COC5=CC=C(Cl)C=C5 (stereo not given) 37.8

# repeat for `Nc1nc(Cl)nc2c1ncn2[C@@H]1O[C@H](CO)[C@@H](O)[C@@H]1F` 16.7

====

tested on: SEM cells; assay: cell viability relative to DMSO control; higher = less cytotoxic; conditions: HPLM + 10% dialyzed FBS; 48 h; 0.00234 µM
Examples of compounds with documented cell viability follow.
// note: answer is a bare numeric in %

# annotated cases, reported cell viability shown
CN(C)CCN1C(=O)c2cccc3cc(N)cc(c23)C1=O
89.4
CN(C)C1=C(Br)C=C(C=C1)C\2NC3=C(\C4=C2C(=O)CC(C)(C)C4)C5=CC=CC=C5C=C3 (stereo unspecified)
119
C[S+](=O)([O-])c1ccc(Oc2cc(F)cc(C#N)c2)c2c1[C@H](O)C(F)(F)C2
97.9
CC(C)Oc1ccc(C(=O)N[C@H](CNC(=O)CN(C)C)Cc2ccc(-c3cn4cccc([C@H](C)O)c4n3)cc2)cc1Cl
129
CCOc1ccc(Cc2cc([C@@H]3O[C@H](CO)[C@@H](O)[C@H](O)[C@H]3O)ccc2Cl)cc1
108

cell viability for `O.O.CCN1CCN(C(=O)N[C@H](C(=O)N[C@H]2[C@@H]3SC\C(=C(/N3C2=O)C(O)=O)CSC4=NN=N[N]4C)C5=CC=C(O)C=C5)C(=O)C1=O` ? 81.3

====

test system: P12-Ichikawa; test: cell viability relative to DMSO control; higher = less cytotoxic; conditions: RPMI 5 mM glucose + 10% FBS; 48 h; 5.12 µM
measurement.label: cell viability (%)
// note: answer is a bare numeric in %

Cc1ncc([N+](=O)[O-])n1CC(C)O (stereo not given)
104
CN1CCN(C(=O)O[C@H]2c3nccnc3C(=O)N2c2ccc(Cl)cn2)CC1
93
Cc1c[nH]c(-c2cnc(NCCNc3ccc(C#N)cn3)nc2-c2ccc(Cl)cc2Cl)n1
75
COc1cc(C(=O)NS(=O)(=O)c2ccccc2C)ccc1Cc1cn(C)c2ccc(NC(=O)OC3CCCC3)cc12
90.1

Please look at the following compound next.
cell viability for `OC[C@H]1O[C@@H](Oc2cc(O)cc(/C=C/c3ccc(O)cc3)c2)[C@H](O)[C@@H](O)[C@@H]1O` ? 105
